Target: Casein kinase I isoform gamma-2 (Homo sapiens) (UniProt P78368)
Sequence (P78368 whole entry, looked up, canonical isoform): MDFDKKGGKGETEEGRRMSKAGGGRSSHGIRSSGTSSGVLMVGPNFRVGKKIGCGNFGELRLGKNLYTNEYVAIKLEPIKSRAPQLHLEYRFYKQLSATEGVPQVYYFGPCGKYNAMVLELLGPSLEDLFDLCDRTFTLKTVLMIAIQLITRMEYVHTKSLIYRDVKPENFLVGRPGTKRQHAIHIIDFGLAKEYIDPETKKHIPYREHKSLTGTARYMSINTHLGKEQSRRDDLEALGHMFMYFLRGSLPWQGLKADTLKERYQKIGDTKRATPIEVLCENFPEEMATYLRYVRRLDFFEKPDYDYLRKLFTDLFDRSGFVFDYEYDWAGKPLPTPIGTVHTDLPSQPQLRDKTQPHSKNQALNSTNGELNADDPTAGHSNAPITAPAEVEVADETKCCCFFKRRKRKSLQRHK
Test: CSNK1G2 binders by thermal stabilization, biophysical, DSF, SYPRO orange, recombinant protein (AID 384)
Details: at 10 µM, protein 2 µM, buffer 10 mM HEPES, pH 7.5, NaCl 150 mM, stronger effect = higher value
Give Tm shift for every item shown.

A selection of reference data follows.
INSERT INTO assay_data (compound_smiles, recorded_measurement) VALUES
  ('Cc1nc(N)sc1-c1ccnc(Nc2cccc(-n3oo3)c2)n1', '4 Celsius'),
  ('Nc1nc(Nc2cccc(Cl)c2)sc1C(=O)c1ccc(F)cc1', '3.4 Celsius');

Per the record, O=c1c(O)c(-c2ccc(O)c(O)c2)oc2cc(O)cc(O)c12 has Tm shift of 3.1 Celsius

* * *

Give Tm shift for every item shown.
Molecular target: Casein kinase I isoform gamma-2 (Homo sapiens)
Test: CSNK1G2 binders by thermal stabilization, biophysical, DSF, SYPRO orange, recombinant protein (AID 384)
Conditions: at 10 µM, protein 2 µM, buffer 10 mM HEPES, pH 7.5, NaCl 150 mM, stronger effect = higher value

A selection of reference data follows.
INSERT INTO measurements (compound, endpoint, recorded_measurement) VALUES
  ('O=Nc1c(-c2c(O)[nH]c3ccc(I)cc23)[nH]c2ccccc12', 'Tm shift', '3.6 Celsius'),
  ('O=Nc1c(-c2c(O)[nH]c3ccc(S(O)(O)O)cc23)[nH]c2ccccc12', 'Tm shift', '3.1 Celsius'),
  ('O=c1[nH]c(O)c2c1c1c3ccccc3nc1n1cncc21', 'Tm shift', '3.6 Celsius'),
  ('CC(C)n1cnc2c(Nc3cccc(Cl)c3)nc(NCCO)nc21', 'Tm shift', '4.7 Celsius'),
  ('NC1=N/C(=C2/CCNC(=O)c3[nH]c(Br)cc32)C(=O)N1', 'Tm shift', '4.4 Celsius');

Go through the list and state Tm shift for each entry.
1. Cc1cc(Nc2nc(-c3ccccc3)nc3ccccc23)n[nH]1
2. COc1ccc(Nc2nc(N)c(C(=O)c3ccc(Cl)cc3)s2)cc1

1. 3.3 Celsius
2. 3.1 Celsius

Go through the list and state Tm shift for each entry.
1. NC(=O)c1ccc(-c2nc(-c3ccc4c(c3)OCCO4)c(-c3ccccn3)[nH]2)cc1
2. CSc1nc(-c2ccnc(NC(C)c3ccccc3)c2)c(-c2ccc(F)cc2)[nH]1 (stereo unspecified)
3. COc1ccc(Nc2nc(N)c(C(=O)c3ccc(OC)cc3)s2)cc1
4. Nc1ncnc2c1c(I)cn2[C@@H]1O[C@H](CO)C(O)C1O (stereo partly specified)

1: 4.3 Celsius; 2: 3.4 Celsius; 3: 4.3 Celsius; 4: 3.3 Celsius

* * *

Molecular target: Casein kinase I isoform gamma-2 (Homo sapiens)
Test: CSNK1G2 binders by thermal stabilization, biophysical, DSF, SYPRO orange, recombinant protein (AID 384)
Details: at 10 µM, protein 2 µM, buffer 10 mM HEPES, NaCl 100 mM, stronger effect = higher value
Endpoint: Tm shift

INSERT INTO assay_data (compound, subject_of_test, recorded_measurement) VALUES
  ('NC1=N/C(=C2\CCNC(=O)c3[nH]ccc32)C(=O)N1', 'Casein kinase I isoform gamma-2 (Homo sapiens)', '3.67 Celsius'),
  ('NC1=N/C(=C2/CCNC(=O)c3[nH]c(Br)cc32)C(=O)N1', 'Casein kinase I isoform gamma-2 (Homo sapiens)', '8.12 Celsius');

Go through the list and state Tm shift for each entry.
1. Nc1ncnc2c1c(I)cn2[C@@H]1O[C@H](CO)C(O)C1O (stereo partly drawn)
2. CC(C)n1cnc2c(Nc3cccc(Cl)c3)nc(NCCO)nc21

["4.69 Celsius", "5.58 Celsius"]

* * *

Target: Casein kinase I isoform gamma-2 (Homo sapiens) (UniProt P78368)
Assay: CSNK1G2 binders by thermal stabilization, biophysical, DSF, SYPRO orange, recombinant protein (AID 384)
Conditions: at 10 µM, protein 2 µM, buffer 10 mM HEPES, NaCl 100 mM, stronger effect = higher value
Endpoint: Tm shift

INSERT INTO results (compound, recorded_measurement) VALUES
  ('CCN(CC)CCNC(=O)c1c(C)[nH]c(/C=C2\C(=O)Nc3ccc(Cl)cc32)c1C', '4.06 Celsius');

Go through the list and state Tm shift for each entry.
1. Clc1ccc(Nc2ncc(-c3cn[nH]c3)n3ccnc23)cc1
2. O=c1cc(-c2ccc(O)c(O)c2)oc2cc(O)cc(O)c12
3. O=C1C(=O)C(c2cc(O)c(O)c(O)c2)Oc2cc(O)cc(O)c21 (centres undefined)
4. COc1cc(/C=C/C(=O)CC(=O)/C=C/c2ccc(O)c(OC)c2)ccc1O
5. COc1cc(O)c2c(c1)oc(=O)c1c3cc(O)c(O)cc3oc21
6. O=c1c(O)c(-c2ccc(O)c(O)c2)oc2cc(O)ccc12
7. CCn1cnc2c(Nc3cccc(Cl)c3)nc(N[C@@H]3CCCC[C@@H]3N)nc21

1: 3.76 Celsius; 2: 4.55 Celsius; 3: 3.74 Celsius; 4: 4.92 Celsius; 5: 5.16 Celsius; 6: 3.19 Celsius; 7: 3.79 Celsius

Per the record, CC(C)C(CO)Nc1nc(Nc2cccc(Cl)c2)c2ncn(C(C)C)c2n1 (centres undefined) has Tm shift of 4.92 Celsius
